# MEASURED_TARGET: T1, Nluc-IL23R fusion protein (human, UniProt Q5VWK5 22-629)
# T1 construct: range 22-629; expressed with a secretion signal in HEK293 cells; used as crude membrane preparation; also called hIL-23R; human IL-23R; not shown: Nanoluc protein from the expression plasmid N1371 (Promega), N-terminal of IL-23R
# T1 sequence (looked up): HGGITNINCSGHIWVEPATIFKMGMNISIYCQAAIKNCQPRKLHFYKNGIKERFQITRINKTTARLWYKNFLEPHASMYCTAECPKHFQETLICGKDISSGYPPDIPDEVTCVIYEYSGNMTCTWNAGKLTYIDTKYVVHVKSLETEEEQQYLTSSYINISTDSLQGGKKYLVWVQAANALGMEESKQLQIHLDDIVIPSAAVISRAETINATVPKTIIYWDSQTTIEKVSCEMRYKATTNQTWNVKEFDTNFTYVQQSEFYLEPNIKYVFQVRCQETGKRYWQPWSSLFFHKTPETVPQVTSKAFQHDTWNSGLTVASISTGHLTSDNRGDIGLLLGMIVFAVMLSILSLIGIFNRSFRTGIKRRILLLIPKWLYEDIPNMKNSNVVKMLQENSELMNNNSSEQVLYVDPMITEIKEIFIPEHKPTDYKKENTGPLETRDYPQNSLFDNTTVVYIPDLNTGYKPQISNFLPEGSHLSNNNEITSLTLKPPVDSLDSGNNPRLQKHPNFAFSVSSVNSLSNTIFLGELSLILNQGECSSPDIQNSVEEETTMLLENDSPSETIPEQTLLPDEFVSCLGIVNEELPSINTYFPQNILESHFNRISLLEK
# PROTOCOL_SUMMARY: BRET competition vs TAMRA-labelled peptide, Nluc-IL23R membranes; further: test concentration or dose not given here
*1 amine or outer side, *2 acyl side, *3 side chain or, on linkers, in order; H or OH if unused. Bridges are numbered along the chain shown (N, C = ends). [ ]: non-standard residue; d: D form. 4‑Aminomethyl‑phenylacetyl = 4-aminomethyl-phenylacetyl unit, its amine closes the lactam, O=C(Cc1ccc(CN[*:1])cc1)[*:2]; 2Nal = N[C@@H](Cc1ccc2ccccc2c1)C(=O)O; AEF = NCCOc1ccc(C[C@H](N)C(=O)O)cc1; αMeL = CC(C)C[C@](C)(N)C(=O)O; 3Amb = NCc1cccc(C(=O)O)c1
Assignment: determine reported % displacement (hIL-23R binding) for the given binders.
Report the figure in % without appending any unit label.

Name the reported % displacement (hIL-23R binding) value associated with the binder H-GCTCWECWWLCS-NH2 (bridge 4-7, 2-11; not fully specified (bridges), compound from Heinis et al., 2020, synthesised for comparison) [I1 (isomer 3)]
105

Try the binder [3Amb]SCWQCW[2Nal]LER-NH2 (lactam N-10; bridge 3-6; not fully specified (bridges); printed as [(3-Aminomethyl)benzoyl](1c)*SC(2a)WQC(2a)W[2-Nal]LE(1c)R-[NH2]) [Ref 37]
103

Same read-out for Ac-KSCWQCW[2Nal]LER-NH2 (lactam 1-10; bridge 3-6; not fully specified (bridges); printed as [Ac]-K(1c)SC(2a)WQC(2a)W[2-Nal]LE(1c)R-[NH2]) [Ref 18] ?
103

What about [4‑Aminomethyl‑phenylacetyl]SCWQC[AEF][2Nal][αMeL]ER-NH2 (lactam N-10; bridge 3-6; not fully specified (bridges); printed as [4-Aminomethyl-phenylacetyl](1c)*SC(2a)WQC(2a)[Y(2-aminoethoxy)][2-Nal][2-Me-Leu]E(1c)R-[NH2], Y = Y(2-aminoethoxy)) [Ref 52] ?
100

Request: XQTWQCYWXENG ([Ac]-[Abu](16i)QTWQC(16i)[Y(2-aminoethoxy)]W[2-Me-Lys]ENG-[NH2]; (16i) [2,7] thioether bridge (cystathionine); N-terminal acetyl, C-terminal amide, Y = Y(2-aminoethoxy)) [Compound C]
102

Do the same for [3Amb]SCWQC[AEF][2Nal][αMeL]E[dR]-NH2 (lactam N-10; bridge 3-6; not fully specified (bridges); printed as [(3-Aminomethyl)benzoyl](1c)*SC(2a)WQC(2a)[Y(2-aminoethoxy)][2-Nal][2-Me-Leu]E(1c)[{d}R]-[NH2], Y = Y(2-aminoethoxy), R = D-Arg) [Ref 41] please
110
